- Test system: S. marcescens IFO 12648
- EXPERIMENTAL DETAILS: Minimal inhibitory concentration (M.I.C.), agar dilution method
- Format: cell-based, Serratia marcescens
- COND: TSA, inoculum 10^7 /ml
REPORTED METRIC: minimal inhibitory concentration (M.I.C.)
// return just the number, without any unit appended

CNC(=O)O/N=C(\C(=O)NC1C(=O)N2C(C(=O)O)=C(C)CSC12)c1csc(=N)[nH]1 (stereo not shown); 50
CCCNC(=O)O/N=C(\C(=O)NC1C(=O)N2C(C(=O)O)=C(CSc3nnnn3C)CSC12)c1csc(=N)[nH]1 (stereo not shown); 3.13
CNC(=O)O/N=C(\C(=O)NC1C(=O)N2C(C(=O)O)=C(CSc3nnc(CC(N)=O)s3)CSC12)c1csc(=N)[nH]1 (stereo not shown); 3.13

What reported minimal inhibitory concentration (M.I.C.) corresponds to CNC(=O)O/N=C(\C(=O)NC1C(=O)N2C(C(=O)O)=C(CSc3nnnn3CCN(C)C)CSC12)c1csc(=N)[nH]1 (stereo not shown) on S. marcescens IFO 12648?
6.25
